target: α-glucosidase; assay: α-Glucosidase inhibition assay (pNPG); settings: compounds
readout.type: IC50

IN: # return recorded IC50 for input COC(=O)[C@H]1O[C@@H](Oc2cc(-c3cc(=O)c4c(O)cc(O)cc4o3)ccc2O)[C@H](O)[C@@H](O)[C@@H]1O [Compound 5, vitegnoside]
OUT: 19.3 µM

IN: # return recorded IC50 for input O=C1c2cc(CO)ccc2C(=O)c2c(O)cccc21 [Compound 10, 1-hydroxy-6-hydroxymethyl anthraquinone]
OUT: > 50 µM

IN: # return recorded IC50 for input CC1CCC2(C(=O)OC3OC(CO)C(O)C(O)C3OC3OC(CO)C(O)C(O)C3O)CCC3(C)C(=CCC4C5(C)CC(O)C(O)C(C)(CO)C5CCC43C)C2C1(C)O (stereo not drawn) [Compound 18]
OUT: > 50 µM

* * *

IC50 overview
molecular target: α-glucosidase; experiment: α-Glucosidase inhibition assay (pNPG); settings: compounds

{"columns": ["compound", "target.of.assay", "IC50"],
 "data": [
  ["Cc1ccc2c(c1O)C(=O)c1cccc(O)c1C2=O [Compound 9, isozyganein]", "α-glucosidase", "> 50 µM"],
  ["O=C(O)C1OC(Oc2cc(-c3cc(=O)c4c(O)cc(O)cc4o3)ccc2O)C(O)C(O)C1O (stereo not drawn) [Compound 11, luteolin-3′-O-glucuronide]", "α-glucosidase", "> 50 µM"],
  ["O=c1cc(-c2ccc(O)cc2)oc2cc(O)cc(O)c12 [Compound 3, apigenin]", "α-glucosidase", "> 50 µM"],
  ["O=c1cc(-c2ccc(O)c(O)c2)oc2cc(O[C@@H]3O[C@H](CO)[C@@H](O)[C@H](O)[C@H]3O)cc(O)c12 [Compound 1, luteolin-7-O-β-D-glucoside]", "α-glucosidase", "> 50 µM"]
]}

IN: Consider the compound C[C@@H]1O[C@@H](O[C@@H]2[C@@H](O)[C@H](OCCc3ccc(O)c(O)c3)O[C@H](CO)[C@H]2OC(=O)/C=C/c2ccc(O)c(O)c2)[C@H](O)[C@H](O)[C@H]1O [Compound 15, verbascoside] tested on α-glucosidase; state its IC50.
OUT: > 50 µM

IN: Consider the compound COc1cc(O)c2c(=O)c(O)c(-c3ccc(O)c(O)c3)oc2c1 [Compound 7, rhamnetin] tested on α-glucosidase; state its IC50.
OUT: 3.04 µM

* * *

assay: DPPH free radical scavenging assay; details: isolated compounds; half scavenging concentration; read-out: DPPH Assay SC50
readout.type: EC50 (µM)
Express your answer in µM, writing the number without its unit.

Worked examples follow.
{"columns": ["molecule", "numeric.value"],
 "data": [
  ["COc1cc(C2Oc3c(OC)cc(CCCO)cc3C2CO)ccc1O (stereo not drawn)", 6.17],
  ["COC(=O)[C@H]1O[C@@H](Oc2cc(O)c3c(=O)cc(-c4ccc(O)cc4)oc3c2)[C@H](O)[C@@H](O)[C@@H]1O", 31.5]
]}

Now for another entry.
IN: # return recorded EC50 for input CC1CCC2(C(=O)OC3OC(CO)C(O)C(O)C3OC3OC(CO)C(O)C(O)C3O)CCC3(C)C(=CCC4C5(C)CC(O)C(O)C(C)(CO)C5CCC43C)C2C1(C)O (stereo not drawn)
OUT: 8.45

* * *

assay: Ferric reducing antioxidant power (FRAP) assay; conditions: compounds at 50 μM; Trolox equivalent
Marks after values point to notes of the source that are not given here.
FRAP Assay overview

Worked examples follow.
{"columns": ["molecule", "readout.type", "result"],
 "data": [
  ["O=c1cc(-c2ccc(O)c(O)c2)oc2cc(O)cc(O)c12", "FRAP Assay", "0.37 ± 0.05 ^b mmol Trolox/L"],
  ["COC(=O)[C@H]1O[C@@H](Oc2cc(-c3cc(=O)c4c(O)cc(O)cc4o3)ccc2O)[C@H](O)[C@@H](O)[C@@H]1O [Compound 5, vitegnoside]", "FRAP Assay", "1.02 ± 0.01 ^a mmol Trolox/L"],
  ["COc1cc(O)c2c(=O)c(O)c(-c3ccc(O)c(O)c3)oc2c1", "FRAP Assay", "0.33 ± 0.04 ^b mmol Trolox/L"],
  ["COC(=O)[C@H]1O[C@@H](Oc2cc(O)c3c(=O)cc(-c4ccc(O)cc4)oc3c2)[C@H](O)[C@@H](O)[C@@H]1O", "FRAP Assay", "0.02 ± 0.00 ^c mmol Trolox/L"]
]}

IN: # return recorded FRAP Assay for input C[C@@H]1O[C@@H](O[C@@H]2[C@@H](O)[C@H](OCCc3ccc(O)c(O)c3)O[C@H](CO)[C@H]2OC(=O)/C=C/c2ccc(O)c(O)c2)[C@H](O)[C@H](O)[C@H]1O [Compound 15, verbascoside]
OUT: 1.22 ± 0.11 ^a mmol Trolox/L

IN: # return recorded FRAP Assay for input COc1cc(C2Oc3c(OC)cc(CCCO)cc3C2CO)ccc1O (centres unmarked)
OUT: 0.25 ± 0.01 ^b mmol Trolox/L

IN: # return recorded FRAP Assay for input Cc1cc2c(cc1O)C(=O)c1ccccc1C2=O [Compound 14, 3-hydroxy-2-methyl-9,10-anthraquinone]
OUT: 0.03 ± 0.00 ^c mmol Trolox/L

IN: # return recorded FRAP Assay for input CC1CCC2(C(=O)OC3OC(CO)C(O)C(O)C3OC3OC(CO)C(O)C(O)C3O)CCC3(C)C(=CCC4C5(C)CC(O)C(O)C(C)(CO)C5CCC43C)C2C1(C)O (centres unmarked)
OUT: 0.39 ± 0.00 ^b mmol Trolox/L

IN: # return recorded FRAP Assay for input `O=c1cc(-c2ccc(O)cc2)oc2cc(O)cc(O)c12`
OUT: 0.01 ± 0.01 ^c mmol Trolox/L

IN: # return recorded FRAP Assay for input `O=C(O)c1cc(O)c(O)c(O)c1`
OUT: 1.03 ± 0.01 ^a mmol Trolox/L
